biological target: Ba/F3 BCR-ABL1 I502L (Homo sapiens, UniProt P00519+P11274, I502L); construct: BCR (N-terminal fusion partner of the oncoprotein); experiment: Cell growth inhibitory activity assay (CellTiter-Glo), Ba/F3 BCR-ABL1 I502L cells; conditions: 72 h, CTG cell viability
pIC50: −log10 of the molar value.
Entries and their pIC50
Reported metric: pIC50

Line notation	Target under test	Assay value
CCn1cc2c(n1)-c1cc(-c3cc(C(=O)Nc4ccc(OC(F)(F)Cl)cc4)cc4nc5n(c34)[C@H](C)COC5)cnc1C2	Ba/F3 BCR-ABL1 I502L (Homo sapiens, UniProt P00519+P11274, I502L)	7.30 to 8.30
CC(C)n1cc2c(n1)-c1cc(-c3cc(C(=O)Nc4ccc(OC(F)(F)Cl)cc4)cc4nc5n(c34)[C@H](C)COC5)cnc1C2	Ba/F3 BCR-ABL1 I502L (Homo sapiens, UniProt P00519+P11274, I502L)	7.30 to 8.30
C[C@@H]1COCc2nc3cc(C(=O)Nc4ccc(OC(F)(F)Cl)cc4)cc(-c4cnc5c(c4)-c4nn(-c6cnccn6)cc4C5)c3n21	Ba/F3 BCR-ABL1 I502L (Homo sapiens, UniProt P00519+P11274, I502L)	7.30 to 8.30
C[C@@H]1COCc2nc3cc(C(=O)Nc4ccc(OC(F)(F)Cl)cc4)cc(-c4cnc5c(c4)-c4nn(-c6ccccn6)cc4C5)c3n21	Ba/F3 BCR-ABL1 I502L (Homo sapiens, UniProt P00519+P11274, I502L)	7.30 to 8.30
C[C@@H]1COCc2nc3cc(C(=O)Nc4ccc(OC(F)(F)Cl)cc4)cc(-c4cnc5c(c4)-c4nn(C6CC6)cc4C5)c3n21	Ba/F3 BCR-ABL1 I502L (Homo sapiens, UniProt P00519+P11274, I502L)	7.30 to 8.30
C[C@@H]1COCc2nc3cc(C(=O)Nc4ccc(OC(F)(F)Cl)cc4)cc(-c4cnc5c(c4)-c4nn(-c6ncc(F)cn6)cc4C5)c3n21	Ba/F3 BCR-ABL1 I502L (Homo sapiens, UniProt P00519+P11274, I502L)	≥ 8.30

====

# pIC50 listing for each entry below
molecular target: Ba/F3 BCR-ABL1 T315I (Homo sapiens, UniProt P00519+P11274, T315I); construct: BCR (N-terminal fusion partner of the oncoprotein); experiment: Cell growth inhibitory activity assay (CellTiter-Glo), Ba/F3 BCR-ABL1 T315I cells; conditions: 72 h, CTG cell viability
pIC50: −log10 of the molar value.

Molecule	pIC50
C[C@@H]1COCc2nc3cc(C(=O)Nc4ccc(OC(F)(F)Cl)cc4)cc(-c4cnc5c(c4)-c4c(cnn4-c4nccc(C#N)n4)C5)c3n21 [T-69-A]	7.30 to 8.30
C[C@@H]1COCc2nc3cc(C(=O)Nc4ccc(OC(F)(F)Cl)cc4)cc(-c4cnc5c(c4)-c4nn(-c6nccc(-c7cccnc7)n6)cc4C5)c3n21 [T-87]	≥ 8.30
C[C@@H]1COCc2nc3cc(C(=O)Nc4ccc(OC(F)(F)Cl)cc4)cc(-c4cnc5c(c4)-c4nn(-c6cnccn6)cc4C5)c3n21 [T-71]	≥ 8.30
C[C@@H]1COCc2nc3cc(C(=O)Nc4ccc(OC(F)(F)Cl)cc4)cc(-c4ccc5c(c4)-c4ncsc4C5)c3n21 [T-113]	7.30 to 8.30
C[C@@H]1COCc2nc3cc(C(=O)Nc4ccc(OC(F)(F)Cl)cc4)cc(-c4cnc5c(c4)-c4nn(-c6ccncn6)cc4C5)c3n21 [T-67]	≥ 8.30
CC(=O)NC1CCC2c3cc(C(=O)Nc4ccc(OC(F)(F)Cl)cc4)cc(-c4cnc5c(c4)C(=O)N(C)C5)c3N(C(C)C)C12 (racemic) [T-11]	6.00 to 7.30
C[C@@H]1COCc2nc3cc(C(=O)Nc4ccc(OC(F)(F)Cl)cc4)cc(-c4ccc5c(c4)C(=O)N(C)C5=O)c3n21 [T-62]	6.00 to 7.30
N#Cc1ccc(-c2ccnc(-n3cc4c(n3)-c3cc(-c5cc(C(=O)Nc6ccc(OC(F)(F)Cl)cc6)cnc5N5CC[C@@H](F)C5)cnc3C4)n2)cn1 [T-19]	≥ 8.30
C[C@@H]1COCc2nc3cc(C(=O)Nc4ccc(OC(F)(F)Cl)cc4)cc(-c4cnc5c(c4)-c4nn(-c6ncc(C(F)(F)F)cn6)cc4C5)c3n21 [T-79]	≥ 8.30
CC(C)n1cc2c(n1)-c1cc(-c3cc(C(=O)Nc4ccc(OC(F)(F)Cl)cc4)cc4nc5n(c34)[C@H](C)COC5)cnc1C2 [T-48]	≥ 8.30
C[C@@H]1COCc2nc3cc(C(=O)Nc4ccc(OC(F)(F)Cl)cc4)cc(-c4cnc5c(c4)-c4nn(-c6nccc(-c7cncc(F)c7)n6)cc4C5)c3n21 [T-96]	≥ 8.30
Cc1cnc(-n2cc3c(n2)-c2cc(-c4cc(C(=O)Nc5ccc(OC(F)(F)Cl)cc5)cnc4N4CC[C@@H](F)C4)cnc2C3)nc1 [T-14]	≥ 8.30
C[C@@H]1COCc2nc3cc(C(=O)Nc4ccc(OC(F)(F)Cl)cc4)cc(-c4ccc5c(c4)-c4nc(N)sc4C5)c3n21 [T-111]	7.30 to 8.30
C[C@@H]1COCc2nc3cc(C(=O)Nc4ccc(OC(F)(F)Cl)cc4)cc(-c4cnc5c(c4)C(=O)NC5)c3n21 [T-30]	6.00 to 7.30
Nc1nc(N2CC[C@@H](F)C2)c(-c2cnc3c(c2)-c2nn(-c4ncc(F)cn4)cc2C3)cc1C(=O)Nc1ccc(OC(F)(F)Cl)cc1 [T-132]	≥ 8.30
C[C@@H]1COCc2nc3cc(C(=O)Nc4ccc(OC(F)(F)Cl)cc4)cc(-c4cnc5c(c4)-c4nn(-c6nccc(-c7ccc(F)cc7)n6)cc4C5)c3n21 [T-89]	≥ 8.30
C[C@@H]1COCc2nc3cc(C(=O)Nc4ccc(OC(F)(F)Cl)cc4)cc(-c4cnc5c(c4)-c4nc(N)sc4C5)c3n21 [T-114]	7.30 to 8.30
C[C@@H]1COCc2nc3cc(C(=O)Nc4ccc(OC(F)(F)Cl)cc4)cc(-c4cnc5c(c4)-c4n[nH]cc4C5)c3n21 [T-3]	≥ 8.30
COc1nc(OC)nc(-n2cc3c(n2)-c2cc(-c4cc(C(=O)Nc5ccc(OC(F)(F)Cl)cc5)cc5nc6n(c45)[C@H](C)COC6)cnc2C3)n1 [T-70]	7.30 to 8.30
C[C@@H]1CCOc2nc3cc(C(=O)Nc4ccc(OC(F)(F)Cl)cc4)cc(-c4cnc5c(c4)C(=O)N(C)C5)c3n21 [T-24]	6.00 to 7.30
CC(=O)N[C@H]1CCC2c3cc(C(=O)Nc4ccc(OC(F)(F)Cl)cc4)cc(-c4cnc5c(c4)C(=O)N(C)C5)c3N(C(C)C)C21 (stereo partly shown) [T-11-A]	< 6.00
O=C(Nc1ccc(OC(F)(F)Cl)cc1)c1cnc(N2CC[C@@H](F)C2)c(-c2cnc3c(c2)-c2nn(-c4nccc(N5CCOCC5)n4)cc2C3)c1 [T-34]	≥ 8.30
C[C@@H]1COCc2nc3cc(C(=O)Nc4ccc(OC(F)(F)Cl)cc4)cc(-c4cnc5c(c4)-c4nn(-c6ncc(C#N)cn6)cc4C5)c3n21 [T-78]	≥ 8.30
C[C@@H]1CN(C)Cc2nc3cc(C(=O)Nc4ccc(OC(F)(F)Cl)cc4)cc(-c4cnc5c(c4)-c4n[nH]cc4C5)c3n21 [T-40]	< 6.00
CC(=O)n1cc2c(n1)-c1cc(-c3cc(C(=O)Nc4ccc(OC(F)(F)Cl)cc4)cc4nc5n(c34)[C@H](C)COC5)cnc1C2 [T-43]	≥ 8.30
